Value source: patent US20250320213A1

Give pEC50 for every item shown.
Target: STAT6 (Homo sapiens)
Construct: stably transfected HaCaT keratinocyte cell line, which expresses NanoLuc luciferase reporter gene under the transcriptional control of the STAT6 responsive promoter; endogenous in cells; host or cells: HaCaT keratinocyte reporter cell line (stably transfected with a NanoLuc reporter)
Assay: STAT6 Reporter Luciferase Assay (IL-13 stimulated HaCaT keratinocyte NanoLuc reporter cells)
Assay type: cell-based
Settings: STAT6 NanoLuc luciferase reporter, IL-13 stimulated HaCaT keratinocyte cells; read-out: Reporter EC50
Give bare numbers, as −log10 of the molar value.

compound	study.system	pEC50
CC(C)n1nc(C(=O)NCc2ccc(NC(=O)N3CCCC3CO)cc2)c2c1CCN(c1ccc(C(=O)N(C)C)cn1)C2 (racemic)	STAT6 (Homo sapiens)	7.40
CC(C)n1nc(C(=O)NCc2ccc(NC(=O)N(C)C)cc2)c2c1CCN(c1ccc(N3CC4CC4C3=O)cn1)C2 (stereo not shown)	STAT6 (Homo sapiens)	7.85

Count: 4. Required value per item: pEC50.
1. CC(C)n1nc(C(=O)NCc2ccc(NC(=O)N3CC[C@H](N(C)C)C3)cc2)c2c1CCN(c1ccc(C(=O)N(C)C)cn1)C2
2. CN(C)C(=O)Nc1ccc(CNC(=O)c2nn(C(C)(C)C)c3c2CN(c2ccc(C(=O)N(C)C)cn2)CC3)cc1
3. CC(C)n1nc(C(=O)NCc2ccc(NC(=O)N(C)C)cc2)c2c1CCN(c1ccc(C(N)=O)cn1)C2
4. CC(C)n1nc(C(=O)NCc2ccc(NC(=O)NCC3CCOC3)cc2)c2c1CCN(c1ccc(C(=O)N(C)C)cn1)C2 (racemic)

Response:
1: 7.77; 2: 8.00; 3: 5.73; 4: 7.92

Count: 2. Required value per item: pEC50.
1. CC(C)n1nc(C(=O)NCc2ccc(NC(=O)N3CCOCC3)cc2)c2c1CCN(c1ccc(C(=O)N(C)C)cn1)C2
2. CN(C)C(=O)Nc1ccc(CNC(=O)c2nn(CC3CC3)c3c2CN(c2ccc(C(=O)N(C)C)cn2)CC3)cc1

Response:
1: 7.96; 2: 7.92

Count: 5. Required value per item: pEC50.
1. CC1CN(c2ccc(C(=O)N(C)C)cn2)Cc2c(C(=O)NCc3ccc(NC(=O)N(C)C)cc3)nn(C)c21 (single isomer, unassigned) [Example 7]
2. CC(C)n1nc(C(=O)NCc2ccc(NC(=O)N3CCC(CO)CC3)cc2)c2c1CCN(c1ccc(C(=O)N(C)C)cn1)C2
3. CCn1nc(C(=O)NCc2ccc(NC(=O)N(C)C)cc2)c2c1[C@H](C)CN(c1ccc(C(=O)N(C)C)cn1)C2 (single isomer, unassigned)
4. CC(=O)N1CCCc2cc(N3CCc4c(c(C(=O)NCc5ccc(NC(=O)N(C)C)cc5)nn4C(C)C)C3)ccc21
5. CC(C)n1nc(C(=O)NCc2ccc(NC(=O)N3C[C@@H]4CC[C@H]3CO4)cc2)c2c1CCN(c1ccc(C(=O)N(C)C)cn1)C2

Response:
1. 7.48
2. 8.15
3. 7.85
4. 7.52
5. 7.82

* * *

Biological target: STAT6 (Homo sapiens, UniProt P42226)
Construct: stably transfected HaCaT keratinocyte cell line, which expresses NanoLuc luciferase reporter gene under the transcriptional control of the STAT6 responsive promoter; endogenous in cells; host or cells: HaCaT keratinocyte reporter cell line (stably transfected with a NanoLuc reporter)
Sequence (P42226 whole entry): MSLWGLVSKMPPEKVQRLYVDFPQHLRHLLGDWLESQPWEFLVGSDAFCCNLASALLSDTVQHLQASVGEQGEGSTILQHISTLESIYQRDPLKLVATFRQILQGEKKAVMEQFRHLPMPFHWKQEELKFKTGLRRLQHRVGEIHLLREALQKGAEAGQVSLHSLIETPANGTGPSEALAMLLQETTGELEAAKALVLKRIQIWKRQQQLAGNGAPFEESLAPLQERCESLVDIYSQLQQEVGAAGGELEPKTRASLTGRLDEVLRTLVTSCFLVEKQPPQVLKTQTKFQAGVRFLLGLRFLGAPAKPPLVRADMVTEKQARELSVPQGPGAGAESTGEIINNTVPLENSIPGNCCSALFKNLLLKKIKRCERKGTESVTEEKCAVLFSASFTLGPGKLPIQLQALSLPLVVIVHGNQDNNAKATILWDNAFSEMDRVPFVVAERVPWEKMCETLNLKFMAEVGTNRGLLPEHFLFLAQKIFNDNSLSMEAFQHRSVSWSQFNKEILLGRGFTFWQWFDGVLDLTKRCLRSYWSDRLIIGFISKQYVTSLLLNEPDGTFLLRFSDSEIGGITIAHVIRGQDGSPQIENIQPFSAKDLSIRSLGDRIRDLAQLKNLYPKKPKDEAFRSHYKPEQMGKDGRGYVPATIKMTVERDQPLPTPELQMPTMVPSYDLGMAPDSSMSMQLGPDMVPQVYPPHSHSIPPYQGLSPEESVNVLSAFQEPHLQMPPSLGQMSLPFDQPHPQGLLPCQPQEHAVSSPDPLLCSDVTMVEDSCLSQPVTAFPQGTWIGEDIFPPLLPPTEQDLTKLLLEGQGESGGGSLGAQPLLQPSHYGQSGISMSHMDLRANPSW
Assay: STAT6 Reporter Luciferase Assay (IL-13 stimulated HaCaT keratinocyte NanoLuc reporter cells)
Format: cell-based
Details: IL-13 stimulated HaCaT STAT6 NanoLuc reporter cells; read-out: Reporter EC50
Give log10(EC50) for every item shown.
In plain terms, each number is the log10 of measured EC50 in nM.

compound	log10(EC50)
CC(C)n1nc(C(=O)NCc2ccc(N)cc2)c2c1[C@@H](C)CN(c1ccc(C(=O)N(C)C)cn1)C2 [Example 450]	1.32
Cc1nn(C)c(=O)n1-c1ccc(N2Cc3c(C(=O)NCc4ccc(NC(=O)N5CCN(C)CC5)cc4)nn(C(C)C)c3[C@@H](C)C2)cc1 [Example 652]	0.70

Count: 6. Required value per item: log10(EC50).
1. C[C@H]1CN(c2ncc(C(=O)N(C)C)cn2)Cc2c(C(=O)NCc3ccc(NC(=O)N(C)C)cc3)nn(C)c21 (single isomer, unassigned) [Example 273]
2. CC(C)n1nc(C(=O)NCc2ccc(NC(=O)N(C)C)cc2)c2c1C(C)(C)CN(c1ccc(C(=O)N(C)C)cn1)C2 [Example 247]
3. CC(C)n1nc(C(=O)NCc2ccc(C(=O)NCC3CCN(C)CC3)cc2)c2c1[C@@H](C)CN(c1ccc(C(=O)N(C)C)cn1)C2 [Example 618]
4. Cc1nc2c(o1)CCN(C(=O)c1ccc(N3CCc4c(c(C(=O)NCc5ccc(NC(=O)N(C)C)cc5)nn4C(C)C)C3)nc1)C2 [Example 423]
5. Cc1nn(C)c2c1CCN(C(=O)c1ccc(N3CCc4c(c(C(=O)NCc5ccc(NC(=O)N(C)C)cc5)nn4C(C)C)C3)nc1)C2 [Example 418]
6. CC(C)n1nc(C(=O)NCc2ccc(NC(=O)N(C)C)cc2)c2c1CCN(c1ccc(C(=O)N3Cc4cccc(C(=O)N(C)C)c4C3)cn1)C2 [Example 431]

Response:
0.48
0.00
2.10
1.46
1.79
1.08

Count: 5. Required value per item: log10(EC50).
1. CC(C)n1nc(C(=O)NCc2ccc(NC(=O)N3CCN(C)CC3)cc2Cl)c2c1[C@@H](C)CN(c1ccc(C(=O)N(C)C)cc1)C2 [Example 712]
2. CC(C)n1nc(C(=O)NCc2ccc(NC(=O)N3CCC4(CCN(C)CC4)CC3)cc2)c2c1[C@@H](C)CN(c1ccc(C(=O)N(C)C)cc1)C2 [Example 749]
3. CN[C@H]1CCN(C(=O)Nc2ccc(CNC(=O)c3nn(C(C)C)c4c3CN(c3ccc(C(=O)N(C)C)cc3)C[C@@H]4C)cc2)C1 [Example 571]
4. CCC1Cc2c(c(C(=O)NCc3ccc(NC(=O)N(C)C)cc3)nn2C)CN1c1ccc(C(=O)N(C)C)cn1 (single isomer, unassigned) [Example 269]
5. C[C@H]1Cc2c(c(C(=O)NCc3ccc(NC(=O)N(C)C)cc3)nn2C)CN1c1ccc(-c2nccn2C)cn1 [Example 259]

Response:
1: 0.48; 2: -0.40; 3: 0.60; 4: 1.94; 5: 0.30

* * *

Target: STAT6 (Homo sapiens, UniProt P42226)
Construct: stably transfected HaCaT keratinocyte cell line, which expresses NanoLuc luciferase reporter gene under the transcriptional control of the STAT6 responsive promoter; endogenous in cells; host or cells: HaCaT keratinocyte reporter cell line (stably transfected with a NanoLuc reporter)
Experiment: STAT6 Reporter Luciferase Assay (IL-13 stimulated HaCaT keratinocyte NanoLuc reporter cells)
Type: cell-based
Conditions: IL-13 stimulated HaCaT STAT6 NanoLuc reporter cells; read-out: Reporter EC50
value.kind: EC50
Please format your answer as a value with the unit trailing.

Below, 2 compounds whose answers are already recorded.
CCN(CC(=O)NC)C(=O)c1ccc(N2CCc3c(c(C(=O)NCc4ccc(NC(=O)N(C)C)cc4)nn3C(C)C)C2)nc1 718 nM
CC(C)n1nc(C(=O)NCc2ccc(NC(=O)N3CCC4(CC3)CN(C)C4)cc2)c2c1[C@@H](C)CN(c1ccc(C(=O)N(C)C)cc1)C2 1 nM

Next, consider the following compound.
The measured EC50 associated with CC(C)n1nc(C(=O)NCc2ccc(NC(=O)N(C)C)cc2)c2c1[C@@H](C)CN(c1ccc(C(=O)N(C)CCN3CCOCC3)cc1)C2 reads 3 nM

* * *

Molecular target: STAT6 (Homo sapiens, UniProt P42226)
Construct: stably transfected HaCaT keratinocyte cell line, which expresses NanoLuc luciferase reporter gene under the transcriptional control of the STAT6 responsive promoter; endogenous in cells; host or cells: HaCaT keratinocyte reporter cell line (stably transfected with a NanoLuc reporter)
Assay: STAT6 Reporter Luciferase Assay (IL-13 stimulated HaCaT keratinocyte NanoLuc reporter cells)
Assay type: cell-based
Conditions: STAT6 NanoLuc luciferase reporter, IL-13 stimulated HaCaT keratinocyte cells; read-out: Reporter EC50
value.kind: pEC50
Answers are plain numbers, as −log10 of the molar value.

Below, 5 molecules whose answers are already recorded.
molecule	experimental.value
CCC1Cc2c(c(C(=O)NCc3ccc(NC(=O)N(C)C)cc3)nn2CC)CN1c1ccc(C(=O)N(C)C)cn1 (racemic) [Example 116]	8.00
CC(n1nc(C(=O)NCc2ccc(NC(=O)N(C)C)cc2)c2c1CCN(c1ccc(C(=O)N(C)C)cn1)C2)C(F)(F)F (racemic)	8.30
CCC1Cc2c(c(C(=O)NCc3ccc(NC(=O)N(C)C)cc3)nn2CC)CN1c1ccc(C(=O)N(C)C)cn1 (single isomer, unassigned) [Example 117]	8.52
CC(C)n1nc(C(=O)NCc2ccc(NC(=O)N(C)C)cc2)c2c1CCN(c1ccc(N3C[C@@H](C)CC3=O)cn1)C2	7.89
CC(C)n1nc(C(=O)NCc2ccc(NC(=O)N(C)C)cc2)c2c1CCN(c1ccc(N3C(=O)C4CCC3C4)cn1)C2 (centres unmarked)	6.93

Count: 6. Required value per item: pEC50.
1. C[C@H]1CN(c2ncc(C(=O)N(C)C)cn2)Cc2c(C(=O)NCc3ccc(NC(=O)N(C)C)cc3)nn(CC3CC3)c21
2. CC(C)n1nc(C(=O)NCc2ccc(NC(=O)N3CCO[C@@H](CO)C3)cc2)c2c1CCN(c1ccc(C(=O)N(C)C)cn1)C2
3. CNC(=O)c1ccc(CNC(=O)c2nc(C3CC3)n3c2CN(c2ccc(C(=O)N(C)C)cn2)CC3)cc1
4. CCCn1nc(C(=O)NCc2ccc(NC(=O)N(C)C)cc2)c2c1CCN(c1ccc(C(=O)N(C)C)cn1)C2
5. CN(C)C(=O)Nc1ccc(CNC(=O)c2nn(C3COC3)c3c2CN(c2ccc(C(=O)N(C)C)cn2)CC3)cc1
6. CC(NC(=O)c1nn(C(C)C)c2c1CN(c1ccc(C(=O)N(C)C)cn1)CC2)c1ccc(NC(=O)N(C)C)cc1 (racemic)

Response:
1: 9.00; 2: 7.54; 3: 6.58; 4: 7.96; 5: 7.31; 6: 7.47
